Subject of test: SpEgtUC (Streptococcus pneumoniae, UniProt A0A0H2ZQB9, E375Q)
Sequence (A0A0H2ZQB9 233-506 E375Q): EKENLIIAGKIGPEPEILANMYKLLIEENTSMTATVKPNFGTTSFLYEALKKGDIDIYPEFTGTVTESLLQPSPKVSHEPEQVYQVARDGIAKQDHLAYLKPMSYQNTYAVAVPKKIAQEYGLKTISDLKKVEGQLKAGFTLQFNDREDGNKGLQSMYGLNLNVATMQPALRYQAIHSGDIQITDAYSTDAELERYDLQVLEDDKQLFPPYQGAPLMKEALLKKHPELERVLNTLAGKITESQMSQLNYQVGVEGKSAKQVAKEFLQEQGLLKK
Assay name: biochemical
Measurement name: Kd (µM)
The figure you give is taken to be in µM; do not add the unit.

Req: Give reported Kd for C[N+](C)(C)[C@@H](Cc1c[nH]c(=S)[nH]1)C(=O)[O-] (SpEgtUC (Streptococcus pneumoniae, UniProt A0A0H2ZQB9, E375Q))
Resp: 25

----------
Subject of test: SpEgtUC (Streptococcus pneumoniae, UniProt A0A0H2ZQB9, Y419F)
Sequence (A0A0H2ZQB9 233-506 Y419F): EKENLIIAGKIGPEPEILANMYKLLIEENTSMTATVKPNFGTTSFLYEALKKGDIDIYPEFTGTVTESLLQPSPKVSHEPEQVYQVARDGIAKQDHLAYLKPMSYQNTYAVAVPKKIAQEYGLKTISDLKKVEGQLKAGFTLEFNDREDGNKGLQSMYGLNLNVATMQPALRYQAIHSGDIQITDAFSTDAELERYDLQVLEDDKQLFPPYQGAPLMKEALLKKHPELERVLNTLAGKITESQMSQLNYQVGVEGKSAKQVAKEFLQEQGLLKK
Assay name: biochemical
Measurement name: Kd (nM)
The figure you give is taken to be in nM; do not add the unit.

Req: Give reported Kd for C[N+](C)(C)[C@@H](Cc1c[nH]c(=S)[nH]1)C(=O)[O-] (SpEgtUC (Streptococcus pneumoniae, UniProt A0A0H2ZQB9, Y419F))
Resp: 625
